// pIC50 lookup, one value per entry
studySystem: Phosphatidylinositol 4,5-bisphosphate 3-kinase catalytic subunit alpha isoform (Homo sapiens, UniProt P42336)
Sequence (P42336 whole entry, canonical isoform): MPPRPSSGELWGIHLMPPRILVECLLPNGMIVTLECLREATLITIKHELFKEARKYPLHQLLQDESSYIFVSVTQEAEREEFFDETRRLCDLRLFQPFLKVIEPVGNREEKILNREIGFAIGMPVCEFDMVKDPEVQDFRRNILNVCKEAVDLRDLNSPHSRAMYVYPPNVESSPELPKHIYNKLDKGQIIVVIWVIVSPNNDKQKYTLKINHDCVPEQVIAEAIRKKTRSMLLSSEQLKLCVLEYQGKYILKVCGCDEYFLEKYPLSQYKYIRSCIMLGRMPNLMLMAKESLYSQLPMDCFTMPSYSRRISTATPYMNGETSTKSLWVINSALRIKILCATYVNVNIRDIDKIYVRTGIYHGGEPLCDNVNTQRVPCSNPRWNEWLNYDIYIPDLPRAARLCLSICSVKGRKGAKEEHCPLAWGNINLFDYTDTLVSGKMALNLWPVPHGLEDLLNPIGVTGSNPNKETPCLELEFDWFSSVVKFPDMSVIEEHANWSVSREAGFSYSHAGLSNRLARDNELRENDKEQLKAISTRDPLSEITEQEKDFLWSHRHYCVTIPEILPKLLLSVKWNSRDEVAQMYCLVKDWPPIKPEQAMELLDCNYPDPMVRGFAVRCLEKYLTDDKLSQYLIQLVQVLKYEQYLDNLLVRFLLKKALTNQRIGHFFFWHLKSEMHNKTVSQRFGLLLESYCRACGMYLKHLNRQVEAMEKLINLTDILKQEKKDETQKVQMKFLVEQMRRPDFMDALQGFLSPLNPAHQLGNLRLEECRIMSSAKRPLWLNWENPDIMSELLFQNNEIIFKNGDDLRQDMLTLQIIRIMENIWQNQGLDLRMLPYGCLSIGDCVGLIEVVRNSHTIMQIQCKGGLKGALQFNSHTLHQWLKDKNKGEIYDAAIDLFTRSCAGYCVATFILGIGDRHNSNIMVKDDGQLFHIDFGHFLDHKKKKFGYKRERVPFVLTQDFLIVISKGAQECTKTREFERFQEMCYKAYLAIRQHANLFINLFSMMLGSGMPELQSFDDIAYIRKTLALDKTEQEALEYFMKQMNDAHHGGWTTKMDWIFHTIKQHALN
assaySummary: Inhibition of human recombinant PI3Kalpha expressed in baculovirus system using PI(4,5)P2 as substrate after 20 mins
pIC50: −log10 of the molar value.

>  <smilesRepresentation>
COCc1cccc(-c2nc(CS(C)(=O)=O)cc(N3CCOCC3)n2)c1

>  <pIC50>
< 3.52

$$$$
>  <smilesRepresentation>
CS(=O)(=O)Cc1cc(N2CC3CCC(C2)O3)nc(-c2ccc3[nH]ccc3c2)n1

>  <pIC50>
< 4.32

$$$$
>  <smilesRepresentation>
CS(=O)(=O)Cc1cc(N2CCOCC2)nc(NC(=O)c2ccno2)n1

>  <pIC50>
< 4.00

$$$$
>  <smilesRepresentation>
O=S(=O)(CCc1cnccn1)Cc1cc(N2CCOCC2)nc(-c2ccccn2)n1

>  <pIC50>
< 4.05

$$$$
>  <smilesRepresentation>
Cn1ccc2cc(-c3nc(CS(C)(=O)=O)cc(N4CCOCC4)n3)ccc21

>  <pIC50>
< 4.62

$$$$
>  <smilesRepresentation>
CS(=O)(=O)Cc1cc(N2CCOCC2)nc(-c2ccc(NS(C)(=O)=O)cc2)n1

>  <pIC50>
< 4.00

$$$$

Shift focus to the following entry.
Entry CS(=O)(=O)Cc1cc(N2CCOCC2)nc(-c2ccccc2)n1 needs its pIC50 filled in; supply it.
< 3.00

The origin of these recorded values is ChEMBL document CHEMBL2029234.
